meta.source: the supplement of paper PMC6992640

- Tested on: WHIM2 (cells of a triple-negative basal-like breast cancer xenograft)
- Test Summary: cell viability (% of vehicle); higher = less cytotoxic
- Condition Info: 10 µM; 72 h
Measured Parameter: cell viability
// no unit string in output, number only

Some entries whose results are on file:
{"columns": ["Compound", "cell viability"],
 "data": [
  ["NC(=O)c1cnccn1 [Pyrazinamide]", 90.2],
  ["CC(=O)O[C@H]1C[C@@]2(C)[C@@H](C[C@@H](O)[C@H]3[C@@]4(C)CC[C@@H](O)[C@@H](C)[C@@H]4CC[C@@]32C)/C1=C(\\CCC=C(C)C)C(=O)[O-].[Na+] [Fusidic Acid (sodium salt)]", 88.3],
  ["CO[C@H]1O[C@@H]2O[C@@]3(C)CC[C@H]4[C@H](C)CC[C@@H]([C@H]1C)[C@@]24OO3 [Artemether (SM-224)]", 117]
]}

Next compound, cell viability to be filled in.
# input Complete the entry with cell viability for Cl.c1ccc2c(c1)CCCC2C1=NCCN1 (stereo not given) [Tetrahydrozoline HCl]
# output 101

###

- Test system: HCI16 (cells of a triple-negative basal-like breast cancer xenograft)
- Test Summary: cell viability (% of vehicle); higher = less cytotoxic
- Condition Info: 10 µM; 72 h
Threshold check on cell viability: strictly below 100 is met; on or above 100 is not met.

{"columns": ["Compound", "Label Value"],
 "data": [
  ["CCOc1cc(N)c(Cl)cc1C(=O)NCC1CN(Cc2ccc(F)cc2)CCO1.O=C(O)CC(O)(CC(=O)O)C(=O)O (stereo unspecified) [Mosapride Citrate]", "not met"],
  ["CNCC(O)c1ccc(O)c(O)c1 [L-Adrenaline]", "not met"]
]}

# input Consider CCCCC(=O)OC1CCC2C3CCc4cc(O)ccc4C3CCC12C (stereo unspecified) [Estradiol valerate] . Does its cell viability lie strictly below 100?
# output not met

# input Answer whether the compound CCCCc1oc2ccc(NS(C)(=O)=O)cc2c1C(=O)c1ccc(OCCCN(CCCC)CCCC)cc1.Cl [Dronedarone HCl] has cell viability strictly less than 100
# output met

# input is_below(cell viability, 100) for COc1ccc(C[C@H](N)C(=O)N[C@@H]2[C@H](O)[C@H](n3cnc4c(N(C)C)ncnc43)O[C@@H]2CO)cc1.Cl.Cl [Puromycin dihydrochloride] ?
# output met

# input Would you kindly verify if cell viability of O=C1Nc2ccc(Cl)cc2C(C#CC2CC2)(C(F)(F)F)O1 (stereo unspecified) [Efavirenz] is strictly less than 100?
# output not met

# input Hello, I'm reviewing records and need to know if cell viability of OCC(O)C(O)C(O)C(O)CO (stereo unspecified) [Sorbitol] is below 100. Could you check?
# output not met

###

- System: WHIM30 (cells of a triple-negative basal-like breast cancer xenograft)
- Test Summary: cell viability (% of vehicle); higher = less cytotoxic
- Condition Info: 10 µM; 72 h
Measured Parameter: cell viability

# input Answer with the recorded cell viability of Cc1ccc(C(=O)c2cc(O)c(O)c([N+](=O)[O-])c2)cc1 [Tolcapone] only.
# output 120

# input In one line, give reported cell viability of the entry CC(C)Cc1ccc(C(C)C(=O)O)cc1 (stereo not given) [Ibuprofen] .
# output 104

# input Using known records, supply cell viability for O=C(O)c1ccc2ccccc2c1O.OCc1cc(C(O)CNCCCCCCOCCCCc2ccccc2)ccc1O (stereo not given) [Salmeterol xinafoate]
# output 107

# input Let me know recorded cell viability for C[N+](C)(C)CC(=O)[O-] [Betaine] , thanks.
# output 90

# input Provide cell viability value for the following molecule: `CC(C)c1cc(C(=O)N2Cc3ccc(CN4CCN(C)CC4)cc3C2)c(O)cc1O`
# output 176

###

Let's look at some compounds and their measured cell viability of combination.
- Tested on: HCI01 (cells of a triple-negative basal-like breast cancer xenograft)
- Test Summary: cell viability of combination (% of vehicle); higher = less cytotoxic
- Condition Info: 1 µM; 72 h; partner dose: 10 nM
Just the number, please.

Before answering, review these 2 worked examples.
{"columns": ["Compound", "cell viability of combination"],
 "data": [
  ["Cc1nc(Nc2ncc(C(=O)Nc3c(C)cccc3Cl)s2)cc(N2CCN(CCO)CC2)n1 + CC(C)C[C@H](NC(=O)[C@H](CCc1ccccc1)NC(=O)CN1CCOCC1)C(=O)N[C@@H](Cc1ccccc1)C(=O)N[C@@H](CC(C)C)C(=O)[C@@]1(C)CO1", 61.3],
  ["COC(=O)NC(C(=O)N1CCCC1c1ncc(-c2ccc(-c3ccc(-c4cnc(C5CCCN5C(=O)C(NC(=O)OC)C(C)C)[nH]4)cc3)cc2)[nH]1)C(C)C (configuration not stated) + CC(C)C[C@H](NC(=O)[C@H](CCc1ccccc1)NC(=O)CN1CCOCC1)C(=O)N[C@@H](Cc1ccccc1)C(=O)N[C@@H](CC(C)C)C(=O)[C@@]1(C)CO1", 70.8]
]}

# input Indicate the recorded cell viability of combination value for this compound: COc1cc2c(Oc3ccc(NC(=O)C4(C(=O)Nc5ccc(F)cc5)CC4)cc3F)ccnc2cc1OCCCN1CCOCC1 + CC(C)C[C@H](NC(=O)[C@H](CCc1ccccc1)NC(=O)CN1CCOCC1)C(=O)N[C@@H](Cc1ccccc1)C(=O)N[C@@H](CC(C)C)C(=O)[C@@]1(C)CO1
# output 75.8

###

- Test system: HCI01
- Test Summary: cell viability (% of vehicle); higher = less cytotoxic
- Condition Info: 10 µM; 72 h
Listed here are compounds together with their documented cell viability.

Reference set, count: 6
{"columns": ["Compound", "Target Entity", "cell viability"],
 "data": [
  ["O=C(Oc1ccccc1C(=O)O)c1ccccc1O [Sasapyrine]", "HCI01", 113],
  ["CCn1cc(C(=O)O)c(=O)c2cc(F)c(N3CCNCC3)cc21 [Norfloxacin]", "HCI01", 104],
  ["CCCCCC(O)C=CC1C(O)CC(=O)C1CCCCCCC(=O)O (stereo unspecified) [Alprostadil]", "HCI01", 86.5],
  ["CO/N=C(\\C(=O)N[C@@H]1C(=O)N2C(C(=O)O)=C(CSc3nc(=O)c(O)nn3C)CS[C@H]12)c1csc(N)n1 [Ceftriaxone Sodium Trihydrate]", "HCI01", 148],
  ["CC(CCC(=O)O)C1CCC2C3C(O)CC4CC(O)CCC4(C)C3CCC12C (stereo unspecified) [Chenodeoxycholic Acid]", "HCI01", 114],
  ["Nc1nc(Cl)nc2c1ncn2C1CC(O)C(CO)O1 (stereo unspecified) [Cladribine]", "HCI01", 95.8]
]}

Please look at the following compound next.
# input Identify measured cell viability obtained with HCI01 for CCOC(=O)C1=C(C)NC(C)=C(C(=O)OCC)C1c1ccccc1C=CC(=O)OC(C)(C)C [Lacidipine] .
# output 108

###

- System: HCI13 (cells of an ER-positive luminal breast cancer xenograft)
- Test Summary: cell viability (% of vehicle); higher = less cytotoxic
- Condition Info: 10 µM; 72 h
Measured Parameter: cell viability
Give your answer as a number; write no unit.

{"columns": ["Compound", "cell viability"],
 "data": [
  ["CCC1=CC2CN(C1)Cc1c([nH]c3ccccc13)C(C(=O)OC)(c1cc3c(cc1OC)N(C)C1C(O)(C(=O)OC)C(OC(C)=O)C4(CC)C=CCN5CCC31C54)C2.O=C(O)C(O)C(O)C(=O)O.O=C(O)C(O)C(O)C(=O)O (stereo not drawn) [Vinorelbine ditartrate]", 39],
  ["CN1CCC(=C2c3ccccc3CC(=O)c3sccc32)CC1.O=C(O)C=CC(=O)O [Ketotifen Fumarate]", 135],
  ["CCC1OC(=O)CC(O)C(C)C(OC2OC(C)C(O)C(N(C)C)C2O)C(CCN2CC(C)CC(C)C2)CC(C)C(=O)C=CC(C)=CC1COC1OC(C)C(O)C(OC)C1OC (stereo not drawn)", 99.5],
  ["CCOC(=O)c1ccc(OC(=O)CCCCCN=C(N)N)cc1.CS(=O)(=O)O [Gabexate mesylate]", 96.8]
]}

We now examine a further compound.
# input Answer with the recorded cell viability of CC(C)(C)NC(=O)C1CCC2C3CCC4NC(=O)C=CC4(C)C3CCC12C (stereo not drawn) [Finasteride] only.
# output 96.2

###

Each entry below lists one item and its recorded cell viability value.
- Test system: HCI03 (cells of an ER-positive luminal breast cancer xenograft)
- Test Summary: cell viability (% of vehicle); higher = less cytotoxic
- Condition Info: 10 µM; 72 h
Respond numerically, and do not add a unit to the figure.

# input Fill in cell viability for record Cc1nnc(SCC2=C(C(=O)[O-])N3C(=O)[C@@H](NC(=O)Cn4cnnn4)[C@H]3SC2)s1.[Na+] [Cefazolin (sodium salt)]
# output 131

# input Write down cell viability measured for item NC1CN(c2c(F)cc3c(=O)c(C(=O)O)cn(C4CC4F)c3c2Cl)CC12CC2.O (configuration not stated) [Sitafloxacin Hydrate]
# output 95.5

# input Entry CC(C(=O)O)c1ccc2c(c1)Cc1cccnc1O2 (configuration not stated) needs its cell viability filled in; supply it.
# output 128

###

- Test system: HCI13
- Test Summary: cell viability (% of vehicle); higher = less cytotoxic
- Condition Info: 10 µM; 72 h
Measured cell viability by item

In the examples that follow, each entry is paired with its recorded cell viability.
{"columns": ["Compound", "cell viability"],
 "data": [
  ["Cc1ccc(Nc2nccc(N(C)c3ccc4c(C)n(C)nc4c3)n2)cc1S(N)(=O)=O.Cl [Pazopanib Hydrochloride]", 75.6],
  ["O=C1CCC(N2C(=O)c3ccccc3C2=O)C(=O)N1 (centres undefined) [Thalidomide]", 129],
  ["CC(COc1ccccc1)N(CCCl)Cc1ccccc1.Cl (centres undefined) [Phenoxybenzamine HCl]", 150]
]}

# input GET cell viability | system: HCI13 | item: CC(=O)N(CC(O)CO)c1c(I)c(C(=O)NCC(O)CO)c(I)c(C(=O)NCC(O)CO)c1I (centres undefined) [Iohexol]
# output 133
